tested on: BXPC-3; assay: Cytotoxicity against human BxPC3 cells assessed as growth inhibition after 24 hrs by MTT assay; type: functional, cell-based; settings: BXPC-3, 24 h
pIC50: −log10 of the molar value.
Returns 1 if the recorded pIC50 is greater than or equal to 4, and 0 otherwise.

INSERT INTO results (substance_smiles, class) VALUES
  ('CCOP(=O)(OCC)OCc1ccccc1OC(C)=O', 0),
  ('CCOP(=O)(OCC)OCc1ccc(OC(C)=O)cc1', 1),
  ('CCOP(=O)(OCC)OCc1cccc(OC(C)=O)c1', 0),
  ('CCOP(=O)(OCC)OCc1ccc(OC(C)=O)c(C)c1', 1),
  ('CCOP(=O)(OCC)OCc1ccc(OC(C)=O)c(Cl)c1', 1);

* * *

tested on: MIA PaCa-2; assay: Cytotoxicity against human MIAPaCa2 cells assessed as growth inhibition after 48 hrs by trypan blue assay; type: functional, cell-based; conditions: MIA PaCa-2, 48 h
pIC50: −log10 of the molar value.
Observed Property: pIC50

INSERT INTO assay_data (substance_smiles, observed_property, obs_value) VALUES
  ('CC(=O)Oc1ccccc1C(=O)Oc1ccc(CO[N+](=O)[O-])cc1', 'pIC50', 5.00);

* * *

tested on: HT-29; assay: Cytotoxicity against human HT-29 cells assessed as growth inhibition after 48 hrs by trypan blue assay; assay type: functional, cell-based; conditions: HT-29, 48 h
pIC50: −log10 of the molar value.
Observed Property: pIC50

INSERT INTO assay_data (substance_smiles, obs_value) VALUES
  ('CC(=O)Oc1ccccc1C(=O)Oc1ccc(CO[N+](=O)[O-])cc1', 5.00);

* * *

tested on: SCC-25; test: Cytotoxicity against human SCC25 cells assessed as growth inhibition after 48 hrs by trypan blue assay; type: functional, cell-based; details: SCC-25, 48 h
pIC50: −log10 of the molar value.
Observed Property: pIC50

INSERT INTO measurements (substance_smiles, observed_property, obs_value) VALUES
  ('CC(=O)Oc1ccccc1C(=O)Oc1ccc(CO[N+](=O)[O-])cc1', 'pIC50', 5.00);

* * *

system: A549; experiment: Cytotoxicity against human A549 cells assessed as growth inhibition after 48 hrs by trypan blue assay; assay type: functional, cell-based; settings: A549, 48 h
pIC50: −log10 of the molar value.
Observed Property: pIC50

INSERT INTO assay_data (substance_smiles, target_entity, obs_value) VALUES
  ('CC(=O)Oc1ccccc1C(=O)Oc1ccc(CO[N+](=O)[O-])cc1', 'A549', 5.00);
